# system: hMC4-R (Homo sapiens (Human), UniProt P32245)
# Sequence (P32245 whole entry): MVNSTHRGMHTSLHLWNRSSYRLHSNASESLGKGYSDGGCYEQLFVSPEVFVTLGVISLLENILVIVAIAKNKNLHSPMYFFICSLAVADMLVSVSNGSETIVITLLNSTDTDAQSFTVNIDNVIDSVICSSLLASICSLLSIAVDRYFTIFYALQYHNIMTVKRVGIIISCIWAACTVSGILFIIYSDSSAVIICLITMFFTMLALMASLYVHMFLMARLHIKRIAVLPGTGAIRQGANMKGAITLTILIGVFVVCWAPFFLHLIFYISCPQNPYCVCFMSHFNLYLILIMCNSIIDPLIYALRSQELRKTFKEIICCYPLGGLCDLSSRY
# assayOverview: High and low density hMC4-R functional assay (cAMP, HEK293-T-REx-MC4-R cells)
# Format: cell-based
# testSettings: 10 ng/mL Doxycycline (high density hMC4-R system)
quantity: pEC50
Lab note — pEC50 values are minus log10 of concentrations in M.

{"compoundStructure": "CC(=O)N[C@H](CCCNC(=N)N)C(=O)N[C@H]1CCCNC(=O)CC[C@@H](C(N)=O)NC(=O)[C@H](Cc2c[nH]c3ccccc23)NC(=O)[C@H](CCCNC(=N)N)NC(=O)[C@@H](Cc2ccc(C#N)cc2)NC(=O)[C@H](Cc2c[nH]cn2)NC1=O", "quantity": "pEC50", "value": 9.70}

Task: So what pEC50 did CC(=O)N[C@@H](CCCNC(=N)N)C(=O)N[C@H]1CCCNC(=O)CC[C@@H](C(N)=O)NC(=O)[C@H](Cc2c[nH]c3ccccc23)NC(=O)[C@H](CCCNC(=N)N)NC(=O)[C@@H](Cc2ccccc2Cl)NC(=O)[C@H](CC(N)=O)NC1=O get with hMC4-R (Homo sapiens (Human), UniProt P32245)?
Output: 10.19

Task: # iterate: CC(=O)N[C@@H](CCCNC(=N)N)C(=O)N[C@H]1CCC(=O)NCCC[C@@H](C(N)=O)NC(=O)[C@H](Cc2c[nH]c3ccccc23)NC(=O)[C@H](CCCNC(=N)N)NC(=O)[C@@H](Cc2ccccc2Cl)NC(=O)[C@H](COCc2ccccc2)NC1=O
Output: 9.43

Task: Then what about the molecule CC(=O)N[C@@H](CCCNC(=N)N)C(=O)N[C@H]1CCC(=O)NCCC[C@@H](C(N)=O)NC(=O)[C@H](Cc2c[nH]c3ccccc23)NC(=O)[C@H](CCCNC(=N)N)NC(=O)[C@@H](Cc2ccccc2Cl)NC(=O)[C@@H]2CCCN2C1=O ?
Output: 9.46

Task: How about CC(=O)N[C@@H](CCCNC(=N)N)C(=O)N[C@H]1CCC(=O)NCCC[C@@H](C(N)=O)NC(=O)[C@H](Cc2c[nH]c3ccccc23)NC(=O)[C@H](CCCNC(=N)N)NC(=O)[C@@H](Cc2ccccc2C)NC(=O)[C@H](CCN)NC1=O ?
Output: 10.07

Task: Input CC(=O)N[C@@H](CCCNC(=N)N)C(=O)N[C@H]1CCC(=O)NCCC[C@@H](C(N)=O)NC(=O)[C@H](Cc2c[nH]c3ccccc23)NC(=O)[C@H](CCCNC(=N)N)NC(=O)[C@@H](Cc2ccc(F)cc2)NC(=O)[C@@H]2C[C@@H](O)CN2C1=O
Output: 9.85

Task: Entry to check: CC(=O)N[C@@H](CCCNC(=N)N)C(=O)N[C@H]1CCC(=O)NCCC[C@@H](C(N)=O)NC(=O)[C@H](Cc2c[nH]c3ccccc23)NC(=O)[C@H](CCCNC(=N)N)NC(=O)[C@@H](Cc2ccccc2C#N)NC(=O)[C@H](CCN)NC1=O
Output: 9.30

Task: Can you check CC(=O)N[C@@H](CCCNC(=N)N)C(=O)N[C@H]1CCC(=O)NCCC[C@@H](C(N)=O)NC(=O)[C@H](Cc2c[nH]c3ccccc23)NC(=O)[C@H](CCCNC(=N)N)NC(=O)[C@@H](Cc2ccccc2Cl)NC(=O)[C@H](CCN)NC1=O next?
Output: 10.35

Task: Likewise for CC(=O)N[C@@H](CCCNC(=N)N)C(=O)N[C@H]1CCC(=O)NCCC[C@@H](C(N)=O)NC(=O)[C@H](Cc2c[nH]c3ccccc23)NC(=O)[C@H](CCCNC(=N)N)NC(=O)[C@@H](Cc2cc(F)c(F)c(F)c2)NC(=O)[C@H](CC(N)=O)NC1=O ?
Output: 9.90
